Source: patent US10647664B2

# System: P. aeruginosa PA01
# Test Protocol: MIC, P. aeruginosa PA01
# Type: cell-based
# Condition Label: Pseudomonas aeruginosa, PA01
Experimental Readout: MIC (µg/mL)

# Compound, Relational Operator, Endpoint Value
measured = [
    ("C[C@@H](O)[C@](C)(NC(=O)c1ccc(C#CC#Cc2ccc(N)cc2)cc1)C(=O)NO", "=", 15),
    ("C[C@@](O)(C(F)F)[C@H](NC(=O)c1ccc(C#Cc2ccc(CN3CCNCC3)cc2)cc1)C(=O)NO", ">", 5),
    ("C[C@@](O)(C(F)F)[C@H](NC(=O)c1ccc(C#CC#CCN2CCOCC2)cc1)C(=O)NO", "=", 1.56),
    ("CC(CCn1ccc(C#Cc2ccccc2)cc1=O)(C(=O)NO)S(C)(=O)=O (centres unmarked)", "<", 0.78),
    ("CC(C#CC#Cc1ccc(C(=O)N[C@H](C(=O)NO)[C@](C)(O)C(F)F)cc1)N1CCOCC1 (some centres unmarked)", "=", 5),
]

---

Please consider the recorded MIC for wild-type E. coli (W3110) in what follows.
Experimental Readout: MIC (µg/mL)

# Compound, Experimental Readout, Units Symbol, Relational Operator, Endpoint Value
rows = [
    ("CC(C#CC#Cc1ccc(C(=O)N[C@H](C(=O)NO)[C@](C)(O)C(F)F)cc1)N1CCOCC1 (stereo partly shown)", "MIC", "µg/mL", ">", 1),
    ("C[C@@](O)(C(F)F)[C@H](NCCCc1ccc(C#Cc2ccccc2)cc1)C(=O)NO", "MIC", "µg/mL", "=", 1.6),
    ("C[C@@](O)(C(F)F)[C@H](NC(=O)c1ccc(C#CC#CCN2CCOCC2)cc1)C(=O)NO", "MIC", "µg/mL", "=", 0.46),
    ("CC(CCn1ccc(C#Cc2ccccc2)cc1=O)(C(=O)NO)S(C)(=O)=O (stereo not shown)", "MIC", "µg/mL", "<", 0.78),
    ("CC(NC(=O)c1ccc(C#Cc2ccc(CN3CCOCC3)cc2)cc1)(C(=O)NO)C(C)(O)C(F)F (stereo not shown)", "MIC", "µg/mL", "=", 6.25),
    ("C[C@@H](O)[C@](C)(NC(=O)c1ccc(C#CC#Cc2ccc(N)cc2)cc1)C(=O)NO", "MIC", "µg/mL", "=", 0.18),
    ("C[C@@](O)(C(F)F)[C@H](NC(=O)c1ccc(C#Cc2ccc(CN3CCNCC3)cc2)cc1)C(=O)NO", "MIC", "µg/mL", ">", 1),
]
